Listed here: items and their measured Daudi Internalization by FACS, % Shift.
Target: T1, CD22 protein expressed on the surface of Daudi cells (human, UniProt P20273 20-847)
T1 sequence (looked up): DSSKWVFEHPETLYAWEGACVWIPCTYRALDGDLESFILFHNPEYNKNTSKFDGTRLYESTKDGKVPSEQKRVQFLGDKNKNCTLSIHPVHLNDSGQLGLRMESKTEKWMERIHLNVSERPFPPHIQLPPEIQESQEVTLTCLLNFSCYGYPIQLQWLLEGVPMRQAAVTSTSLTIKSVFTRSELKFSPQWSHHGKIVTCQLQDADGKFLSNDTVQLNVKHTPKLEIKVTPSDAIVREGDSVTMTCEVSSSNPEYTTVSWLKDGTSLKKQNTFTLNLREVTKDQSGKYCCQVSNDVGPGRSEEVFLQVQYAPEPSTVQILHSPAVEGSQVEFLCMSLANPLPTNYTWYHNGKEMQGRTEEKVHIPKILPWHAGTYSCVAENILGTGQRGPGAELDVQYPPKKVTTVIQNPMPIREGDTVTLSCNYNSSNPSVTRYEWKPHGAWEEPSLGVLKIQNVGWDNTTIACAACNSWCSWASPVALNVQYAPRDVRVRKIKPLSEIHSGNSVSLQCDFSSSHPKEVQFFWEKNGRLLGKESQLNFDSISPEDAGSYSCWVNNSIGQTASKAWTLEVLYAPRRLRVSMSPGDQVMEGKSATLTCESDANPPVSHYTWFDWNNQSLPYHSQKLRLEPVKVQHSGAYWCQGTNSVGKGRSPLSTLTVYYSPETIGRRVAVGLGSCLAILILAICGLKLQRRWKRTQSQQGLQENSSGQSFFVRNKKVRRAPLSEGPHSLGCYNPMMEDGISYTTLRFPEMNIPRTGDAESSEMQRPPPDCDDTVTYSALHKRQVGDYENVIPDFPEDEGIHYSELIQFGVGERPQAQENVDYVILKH
Experiment: cell-based or functional assay
Write the number in % without appending the unit.

Request: Return reported Daudi Internalization by FACS, % Shift. Input binder: VM1003 (antibody, V domains shown, Humanized antibody with human constant region; also called anti-CD22 Mab clone VM1003) VH: EVQLVQSGAEVKKPGATVKISCKVSGYVFTSYWLHWIRQSPSRGLEWLGYINPRNDYTEYNRIFKGRFVFSLDTSVSTAYLQICSLKAEDTAVYYCARRGITTFYWGQG VL: EIVLTQSPATLSLSPGERATLSCKSSQSVLYSAVEKNYLAWYQQKPGQAPRLLIYWASTRERGIPDRFSGSGSGTDFTLTISRLEPEDFAVYYCKQYLSSWTFGQG
Result: 70.8

Request: State its Daudi Internalization by FACS, % Shift for this binder: VM1011 (antibody, V domains shown, Humanized antibody with human constant region; also called anti-CD22 Mab clone VM1011) VH: QVQLQESGPGLVKPSQTLSLTCTVSGYVFTSYWLHWIRQPPGKGLEWIGYINPRNDYTEYNRIFKGRVTITADKSTSTAYMELSSLRSEDTAVYYCARRGITTFYWGQG VL: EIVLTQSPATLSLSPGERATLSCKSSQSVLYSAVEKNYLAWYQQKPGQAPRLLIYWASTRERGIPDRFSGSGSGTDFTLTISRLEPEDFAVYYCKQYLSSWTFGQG
Result: 87.1

Request: Identify measured Daudi Internalization by FACS, % Shift corresponding to VM1010 (antibody, V domains shown, Humanized antibody with human constant region; also called anti-CD22 Mab clone VM1010) VH: EVQLVQSGAEVKKPGESLRISCKVSGYVFTSYWLHWIRQSPSRGLEWLGYINPRNDYTEYNRIFKGRFTISRDNAKNSLYLQMNSLRAEDTAVYYCARRGITTFYWGQG VL: EIVLTQSPATLSLSPGERATLSCKSSQSVLYSAVEKNYLAWYQQKPGKAPKLLIYWASTRERGVPSRFSGSGSGTDFTFTISSLQPEDIATYYCKQYLSSWTFGQG
Result: 65.7
